Reported protein stability index values are given for each entry in this list.
B1: PTPN9 (parent)
chain: ILFSLPPALDWDSVHVPGPHAMTI

Variants of: B1
Assay Notes: protein stability index of a GFP-peptide fusion (GPS, HEK-293T) (PSI 1-6); higher = more stable;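 note: lentivirally expressed fusions sorted by FACS into six bins by GFP to DsRed ratio, PSI derived from sequencing read proportions per bin multiplied by bin number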
Setup Conditions: c terminus: a fixed tail appended
Simply state the number, no unit and no words.

Request: // query protein stability index value for entry P17K
Result: 2.49

Request: Param item: V16Q
Result: 1.81

***
Request: // query protein stability index value for entry D10K
Result: 3.67

Request: Param item: V14I
Result: 2.09

Request: Param item: S4L
Result: 2.55

Request: Param item: G18Q
Result: 3.62

Request: Param item: L5Q
Result: 1.47

Request: Param item: V14N
Result: 2.41

Request: Param item: V14M
Result: 3.43

Request: Param item: D10A
Result: 2.86

Request: Param item: L9W
Result: 4.62

Request: Param item: I24D
Result: 1.83

Request: Param item: V16K
Result: 2.54

Request: Param item: H20K
Result: 2.76

Request: Param item: A21R
Result: 1.86

Request: Param item: P17G
Result: 1.94

Request: Param item: V16G
Result: 1.99

Request: Param item: I24F
Result: 3.71

Request: Param item: I24R
Result: 1.71

Request: Param item: I1R
Result: 2.17
